The measured values listed here are drawn from PubChem BioAssay (NCI).

Recorded growth values for a group of molecules are listed next.
Tested on: MOLT-4 leukemia
procedure-text: NCI-60 one-dose screen, 48 h (100 = growth as untreated, 0 = no growth, -100 = all killed)
experimental-conditions: 10 µM unless noted
About 83,000 compounds went through this panel and 20% of them were active in at least one assay; those are over-represented in the sample as a whole. Calls of active or inactive are those of the source. Rule for the calls: active = growth percent below 10; inactive = the rest.

# annotated cases, reported growth shown
COC(=O)c1sc(-c2ccc(C)cc2)cc1O = 87.7% (inactive)
Cc1oc2ccc(O)c(CN3CCCCCC3)c2c1C(=O)Nc1ccc(C(F)(F)F)cc1 = 64.3% (inactive)
COC(=O)c1c(C)nc(C)c2c1C(=O)C(Br)=C(NCCCCO)C2=O = 79.5% (inactive)
CN(C)CCCN(CCC1CCCCC1)CCC1CCCCC1 = 15.9% (inactive)
Cc1cc(C)n(C(=O)CSc2nc3sc4c(c3c(=O)n2-c2ccccc2)CCCCC4)n1 = 95.2% (inactive)

Req: growth of O=C1CCc2c(sc3[nH]c(=S)n(-c4cc(C(F)(F)F)cc(C(F)(F)F)c4)c(=O)c23)C1 on MOLT-4 leukemia?
Resp: 11% (inactive)

Req: Again, but for CCOC(=O)c1ccc2c(c1)c1c(C)c3cnccc3c(C)c1n2C
Resp: 2.2% (active)

Req: Again, but for COc1ccc(C2=C/C(=C\c3ccccc3O)C(=O)N2Cc2ccccc2)cc1
Resp: 66.8% (inactive)

Req: Again, but for CCN1CCN(C(=O)[C@]23CC[C@@H](C)[C@H](C)[C@@H]2C2=CC[C@@H]4[C@@]5(C)C/C(=C/c6ccncc6)C(=O)C(C)(C)[C@@H]5CC[C@@]4(C)[C@]2(C)CC3)CC1
Resp: 0.087% (active)

* * *

System: HS 578T breast
procedure-text: NCI-60 one-dose screen, 48 h
experimental-conditions: 10 µM unless noted
About 83,000 compounds went through this panel and 20% of them were active in at least one assay; those are over-represented in the sample as a whole. The source made the active and inactive calls. Rule for the calls: active = growth percent below 10; inactive = the rest.
A correct response names exactly one class from active, inactive

N#CSCc1cc(Cl)c(CSC#N)cc1Cl = inactive

Req: What classification did CN1CCN(CC(=O)N(C)c2ccc(N=C(c3ccccc3)c3c(O)[nH]c4ccc([N+](=O)[O-])cc34)cc2)CC1 end up with in this test?
Resp: inactive

Req: Again, but for COc1cc(C(=O)c2c(-c3ccccc3)oc3ccccc23)cc(OC)c1O
Resp: active

Req: Again, but for CCC(C)C(N)C(=O)NC(CC(C)C)C(=O)N1CCCC1C(=O)NC(Cc1c[nH]c2ccccc12)C(=O)NC(CCCCN)C(=O)NC(Cc1c[nH]c2ccccc12)C(=O)N1CCCC1C(=O)NC(Cc1c[nH]c2ccccc12)C(=O)NC(Cc1c[nH]c2ccccc12)C(=O)N1CCCC1C(=O)NC(Cc1c[nH]c2ccccc12)C(=O)NC(CCCNC(=N)N)C(=O)NC(CCCNC(=N)N)C(N)=O (stereo not drawn)
Resp: inactive

Req: Again, but for CC(=O)c1c(/C=C/c2ccc(C)cc2)c2ccccc2[nH]c1=O
Resp: inactive

Req: Again, but for CN(Cc1ccccc1)c1nc(Cl)c(C2CC(c3ccc(Cl)cc3)=NN2c2cc(Cl)cc(Cl)c2)s1 (stereo not drawn)
Resp: inactive

Req: Again, but for CC1OC(C(=O)N2CCN(CCO)CC2)CC1COC1CCCCC1 (stereo not drawn)
Resp: inactive

* * *

Test system: SF-539 CNS
procedure-text: NCI-60 one-dose screen, 48 h
experimental-conditions: 10 µM unless noted
Procedure: Cells are grown in 96 well plates and exposed to the test compound for 48 hours. Compounds are tested at a single concentration, which is 10^-5 M for most compounds. The reported endpoint is percent growth (GI% or GIPRCNT), where numbers from 0 - 100% represent growth inhibition, and numbers from -100% - 0 represent cell death. For example, a value of 40 represents 60% growth inhibition. A value of 0 means no net growth occurred over the course of the experiment. […]
About 83,000 compounds went through this panel and 20% of them were active in at least one assay; those are over-represented in the sample as a whole. Activity calls are given as the source filed them. How the source made its calls: active means growth percent below 10; inactive means the rest.
A correct response names exactly one class from 1.0 = active, 0.0 = inactive

Solved entries:
Cc1ccc(S(=O)(=O)c2nc(-c3ccccc3)oc2S(C)=O)cc1 (centres undefined) = 1.0
CN1CCN(Cc2ccc(NC(=O)c3cncc(C#Cc4c(N)ncc5cc(F)ccc45)c3)cc2C(F)(F)F)CC1 = 1.0
CCCCN(CCC#N)C(N)=O = 0.0
CC(C)n1nc(-c2ccc3oc(N)nc3c2)c2c(N)ncnc21 = 1.0
O=C(Nc1cccc2c1C(=O)c1cccc(NC(=O)c3ccc(C(=O)Nc4cccc5c4C(=O)c4cccc(NC(=O)c6ccccc6)c4C5=O)cc3)c1C2=O)c1ccccc1 = 0.0
Cc1ccccc1NC(=O)c1sc2nc3c(cc2c1N)CCCC3 = 1.0
Cc1nn(-c2ccccc2)c(Oc2ccccc2)c1/C=N/NC(=O)Cn1c(=O)sc2ccccc21 = 0.0
Cc1cccc(CN(Nc2ccccc2)c2ccccc2)n1 = 0.0

Req: What classification did CCOC(=O)CC1C(CNC(=O)NC)OC(n2cnc3c(NC(=O)Nc4ccccc4)ncnc32)C1O[Si](C)(C)C(C)(C)C (centres undefined) end up with in this test?
Resp: 0.0

* * *

Test system: NCI-H322M lung
procedure-text: NCI-60 one-dose screen, 48 h
experimental-conditions: 10 µM unless noted
This is part of a sample that, as a whole, favours compounds with a hit. Of some 83,000 tested, about 20% had one in any assay. Activity calls are given as the source filed them. How the source made its calls: active means growth percent below 10; inactive means the rest.
A correct response names exactly one class from active, inactive

Solved entries:
CCOC(=O)c1cc(C(=O)c2cc(OC)cc(OC)c2)n2ncccc12 = inactive
COc1ccc(/C=C2/CCc3cc4ccc(OC)cc4[o+]c32)c(O)c1 = inactive
Cn1ccnc1C(=O)/C=C/c1ccc(CC(=O)Nc2cc(F)c(F)c(F)c2)cc1 = inactive
Cc1cc2c(c(C)n1)CN(C(=O)Nc1nc(-c3cncs3)ccc1N)C2 = inactive

Req: What classification did CCC(=C(c1ccc(OCCN(CC)CC)cc1)c1ccc(OCCN(CC)CC)cc1)c1ccc(Cl)cc1 end up with in this test?
Resp: active

* * *

System: SR leukemia
procedure-text: NCI-60 one-dose screen, 48 h (100 = growth as untreated, 0 = no growth, -100 = all killed)
experimental-conditions: 10 µM unless noted
This is part of a sample that, as a whole, favours compounds with a hit. Of some 83,000 tested, about 20% had one in any assay.
Recorded growth values for a group of molecules are listed next.
Note: unit % is implicit; provide only the numeric part.

CN1CCN(Cc2ccc(NC(=O)c3cncc(C#Cc4cnc(N)c5ccc(C#N)cc45)c3)cc2C(F)(F)F)CC1 = 20
CSc1nc(CC(C)C)c(C#N)c(=O)n1C = 47.4
Cn1ccnc1C(=O)/C=C/c1ccc(C(=O)Nc2ccccc2F)cc1 = 6.83

Req: Fill in: growth of CCCCC1=C(Br)C(=O)c2ncccc2C1=O is ___
Resp: 30.8

Req: Again, but for O=C(Nc1ccccc1CNc1nc(Nc2ccc(OCCN3CCCC3)cc2)ncc1Cl)NC1CCCCC1
Resp: 5.48

* * *

Test system: OVCAR-3 ovarian
procedure-text: NCI-60 one-dose screen, 48 h (100 = growth as untreated, 0 = no growth, -100 = all killed)
experimental-conditions: 10 µM unless noted
About 83,000 compounds went through this panel and 20% of them were active in at least one assay; those are over-represented in the sample as a whole.
// returns Condition not met unless growth is strictly below 70%, in which case Condition met

O=C(O)/C=C\C(=O)Nc1ccc2c(c1)Cc1cc(F)ccc1-2 = Condition not met

Req: Record COc1ccc(S(=O)(=O)N(C)c2oc(-c3ccc(Cl)cc3)nc2C#N)cc1 : is its growth strictly below 70%?
Resp: Condition not met

Req: Again, but for CCN(CC)c1ccc(/C=N/NC(=O)c2ccccc2Nc2ccnc(C(F)(F)F)c2)c(O)c1
Resp: Condition met

Req: Again, but for CNC(=O)c1cc(Oc2ccc3nc(NC(=O)c4cc(C(F)(F)F)cc(C(F)(F)F)c4)sc3c2)ccn1
Resp: Condition met

Req: Again, but for CCCCC1=C(Br)C(=O)c2ncccc2C1=O
Resp: Condition met

Req: Again, but for Cc1cc(N2CCOCC2)nc(N(CCCNc2ccnc3cc(Cl)ccc23)Cc2ccc3c(c2)OCO3)n1
Resp: Condition met

Req: Again, but for CC(C)n1cc(C2=C(c3cccc4ccccc34)C(=O)NC2=O)c2cc(Br)ccc21
Resp: Condition met

Req: Again, but for CC(CN)[C@@H]1CC[C@]2(CO)CC[C@]3(C)[C@H](CC[C@@H]4[C@@]5(C)CCC(NCCO)C(C)(C)[C@@H]5CC[C@]43C)[C@@H]12 (some centres undefined)
Resp: Condition met

Req: Again, but for Fc1ccc(/C=C/c2cc(/C=C/c3ccc(F)cc3)n(-c3cc(F)cc(F)c3)n2)cc1
Resp: Condition not met

Req: Again, but for COc1cc(OCc2cccc(-c3ccc4c(c3)OCCO4)c2C)cc(OC)c1C=O
Resp: Condition met
